Target: T1, recombinant GST-SNAP25197 (UniProt P60880 1-197)
T1 construct: range 1-197; also called BoNT/A-cleaved form of SNAP25
T1 sequence (P60880 1-197 limits assumed): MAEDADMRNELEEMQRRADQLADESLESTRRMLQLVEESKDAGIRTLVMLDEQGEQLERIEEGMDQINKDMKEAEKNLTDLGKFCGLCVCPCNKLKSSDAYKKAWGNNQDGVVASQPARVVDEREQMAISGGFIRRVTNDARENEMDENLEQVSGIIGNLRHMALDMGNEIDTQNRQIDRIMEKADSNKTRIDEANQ
Assay: direct ELISA; ratio of A450 with SNAP25197 to A450 with SNAP25FL
measurementName: Ratio197/206

[[record]]
binder = "B4 IgG (antibody, V domains shown, also called B4 IgG1; clone 4) VH: EVKLVESGGGLVKPGGSLKLSCAASGFTFSNYGMSWVRQTPEKRLEWVATISSGGSYTYYPDSVKGRFTISRDNAKNTLYLQMSSLRSEDTAMYYCARHEGGGNPYFDYWGQGTTLTVSS VL: DVLMTQTPLSLPVSLGDQASISCRSSQSLVHSNGNTYLHWYLQKPGQSPKLLIYKVSNRFSGVPDRFSGSGSGTDFTLKISRVEAEDLGVYFCSQNTLVPWTFGGGTKLEIK"
measuredresult = 0.83

[[record]]
binder = "C7 IgG (antibody, V domains shown, also called C7 IgG2a) VH: QVQLVETGGGLVQPKGSLKLSCAASGFTFNTNAMNWVRQAPGKGLEWVARIRSKSNNYATYYADSVKDRFTISRDDSQSLLYLQMNNLKTEDTAMYYCVYGRSYGGLSYWGQGTLVTVSA VL: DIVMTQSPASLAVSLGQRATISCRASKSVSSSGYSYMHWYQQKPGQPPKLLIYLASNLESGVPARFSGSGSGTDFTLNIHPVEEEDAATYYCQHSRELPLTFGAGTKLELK"
measuredresult = 1040

[[record]]
binder = "D3 IgG (antibody, V domains shown) VH: EVQLEESGGGLVQPGGSLKLSCAASGFTFSNYGMSWVRQTPDKRLELVATINSNGGTTYYPDSVKGRFTISRDNAKNTLYLQMSSLKSEDSAMYYCARDRDAMDYWGQGTSVTVSS VL: DVLMTQTPLSLPVSLGDQASISCRSSQSIVNSHGNTYLEWYLQKPGQSPKLLIYKVSNRFSGVPDRFSGSGSGTDFTLKISRVEAEDLGVYYCFQGSHVPWTFGGGTKLEIK"
measuredresult = 12.9

[[record]]
binder = "D2 IgG (antibody, V domains shown) VH: DVKLQESGPGLVKPSQSLSLTCSVTGYSITSGYYWNWIRQFPGNKLEWMGYIRYDGSNNYNPSLKNRISITRDTSKNQFFLKLNSVTTEDTASYYCARDRDSSYYFDYWGQGTALTVSS VL: DIVMTQSSSYLSVSLGGRVTITCKASDHINNWLAWYQQKPGNAPRLLISDTTSLETGVPSRFSGSGSGKDYTLSITSLQTEDVATYYCQQYWSAPPTFGGGTKLEIK"
measuredresult = 0.03

[[record]]
binder = "C16 IgG (antibody, V domains shown, also called C16 IgG1) VH: EVQLQQSGAELARPGASVQMSCKAFGYTFTNYTMHWVRQRPGQGLEWIGFINPSSDYTNYNQKFKDKATLSADKSSSTAYMQLSSLTSEDSAVYYCARRIFYNGRTYAAMDYWGQGTSVTVSS VL: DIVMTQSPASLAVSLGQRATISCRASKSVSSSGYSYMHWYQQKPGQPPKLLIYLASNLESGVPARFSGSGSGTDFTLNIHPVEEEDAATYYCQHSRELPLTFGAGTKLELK"
measuredresult = 996

